measuredTarget: recombinant PRL-2 (Homo sapiens)
Construct: 6xHis (N, cleaved yes); made in house; host or cells: E. coli One Shot BL21 Star
Sequence (Q12974 whole entry): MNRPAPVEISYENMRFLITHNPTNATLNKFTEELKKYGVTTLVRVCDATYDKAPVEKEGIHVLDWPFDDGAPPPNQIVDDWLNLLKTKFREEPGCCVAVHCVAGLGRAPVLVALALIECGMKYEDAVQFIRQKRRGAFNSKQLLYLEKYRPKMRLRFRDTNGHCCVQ
test: In vitro phosphatase assay (DiFMUP hydrolysis), PRL-2;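 further: PRL-2 activity read as DiFMUP hydrolysis after 20 min at room temperature with drug, enzyme first pre-reduced at 4 °C for 20 min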
Format: biochemical
experimentalContext: FDA-approved drug screen; compared to DMSO
Where a name gives a salt, the structure may show the parent alone.
The reader will find reported % Phosphatase Activity (compared to DMSO) PRL-2 values listed item by item below.
parameterMeasured: % Phosphatase Activity (compared to DMSO) PRL-2 (%)

>>> testresult("CN1CCC(=C2c3ccccc3C=Cc3ccccc32)CC1 [Cyproheptadine HCl]")
112
>>> testresult("O=C([O-])Cc1ccccc1Nc1c(Cl)cccc1Cl.[K+] [Diclofenac Potassium]")
132
>>> testresult("CC(=O)/N=c1/sc(S(N)(=O)=O)nn1C [Methazolamide]")
114
>>> testresult("Cc1c(C(N)=O)cc([N+](=O)[O-])cc1[N+](=O)[O-] [Dinitolmide]")
117
>>> testresult("N[C@@H](CSCCCO)C(=O)O [Fudosteine]")
75
>>> testresult("Cc1c(OCC(F)(F)F)ccnc1C[S@@+]([O-])c1nc2ccccc2[nH]1 [Dexlansoprazole]")
100
>>> testresult("Cn1cc[nH]c1=S [Methimazole]")
97
>>> testresult("CCN(CC)CCCC(C)Nc1ccnc2cc(Cl)ccc12 (stereo not drawn) [Chloroquine Phosphate]")
115
>>> testresult("C[C@@H]1CC[C@H]2[C@@H](C)C(=O)O[C@@H]3O[C@@]4(C)CC[C@@H]1[C@]32OO4 [Artemisinin]")
90
>>> testresult("O=C(O)Cc1ccccc1Nc1c(Cl)cccc1Cl [Diclofenac Sodium]")
115
>>> testresult("Cc1c(-c2ccc(O)cc2)n(Cc2ccc(OCCN3CCCCCC3)cc2)c2ccc(O)cc12 [Bazedoxifene Acetate]")
106
>>> testresult("COc1cc(Nc2ncc(F)c(Nc3ccc4c(n3)N(COP(=O)(O)O)C(=O)C(C)(C)O4)n2)cc(OC)c1OC [Fostamatinib (R788)]")
111
>>> testresult("O=C(O)CCc1nc2ccccc2[nH]1 [Procodazole]")
85
>>> testresult("O=C(NC(Cc1cc(=O)[nH]c2ccccc12)C(=O)O)c1ccc(Cl)cc1 (stereo not drawn) [Rebamipide]")
93
>>> testresult("O=C(NC[C@H]1CN(c2ccc(N3CCOCC3=O)cc2)C(=O)O1)c1ccc(Cl)s1 [Rivaroxaban]")
106
>>> testresult("CCCCCCOC(=O)N=C(N)c1ccc(NCc2nc3cc(C(=O)N(CCC(=O)OCC)c4ccccn4)ccc3n2C)cc1 [Dabigatran Etexilate]")
112
>>> testresult("Nc1nc(F)nc2c1ncn2[C@@H]1O[C@H](COP(=O)(O)O)[C@@H](O)[C@@H]1O [Fludarabine Phosphate]")
91
>>> testresult("COCCOC(=O)C1=C(C)NC(C)=C(C(=O)OC(C)C)C1c1cccc([N+](=O)[O-])c1 (stereo not drawn) [Nimodipine]")
72

* * *

measuredTarget: recombinant PRL-3 (Homo sapiens, UniProt O75365)
Construct: 6xHis (N, cleaved yes); made in house; host or cells: E. coli One Shot BL21 Star
Sequence (O75365 whole entry): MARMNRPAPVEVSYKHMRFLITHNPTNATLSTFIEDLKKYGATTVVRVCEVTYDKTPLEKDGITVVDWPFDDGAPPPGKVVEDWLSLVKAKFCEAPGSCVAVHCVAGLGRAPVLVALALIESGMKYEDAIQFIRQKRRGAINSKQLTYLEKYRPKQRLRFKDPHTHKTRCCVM
test: In vitro phosphatase assay (DiFMUP hydrolysis), PRL-3; further: test concentration or dose not given here
Format: biochemical
experimentalContext: FDA-approved drug screen; compared to DMSO
Counter-ions that a name gives are not always drawn.
The reader will find reported % Phosphatase Activity (compared to DMSO) PRL-3 values listed item by item below.
parameterMeasured: % Phosphatase Activity (compared to DMSO) PRL-3 (%)

>>> testresult("CC1(C)S[C@@H]2[C@H](NC(=O)[C@H](N)c3ccc(O)cc3)C(=O)N2[C@H]1C(=O)O")
106
>>> testresult("CC1(COc2ccc3c(c2)ncn3-c2ccc3cccc(N4CCC(N)CC4)c3n2)COC1")
105
>>> testresult("NC(=O)N/N=C/c1ccc([N+](=O)[O-])o1")
68
>>> testresult("C[n+]1ccccc1/C=N/O.[Cl-] [Pralidoxime (chloride)]")
105
>>> testresult("Cc1cccc(C)c1NC(=O)C1CCCCN1C (centres unmarked) [Mepivacaine HCl]")
87
>>> testresult("NC(=O)c1cnccn1 [Pyrazinamide]")
95
>>> testresult("CC1(C)S[C@@H]2[C@H](NC(=O)[C@H](N)c3ccccc3)C(=O)N2[C@H]1C(=O)O [Ampicillin Trihydrate]")
72
>>> testresult("CN1C(C(=O)Nc2ccccn2)=C(O)c2sc(Cl)cc2S1(=O)=O")
81
>>> testresult("COc1cc(/C=C/C(=O)CC(=O)/C=C/c2ccc(O)c(OC)c2)ccc1O")
85
>>> testresult("OCc1cc(C(O)CNCCCCCCOCCCCc2ccccc2)ccc1O (centres unmarked) [Salmeterol Xinafoate]")
110
>>> testresult("COc1ccccc1OCCNCC(O)COc1cccc2[nH]c3ccccc3c12 (centres unmarked)")
111
>>> testresult("CC[C@H]1OC(=O)[C@H](C)[C@@H](O[C@H]2C[C@@](C)(OC)[C@@H](O)[C@H](C)O2)[C@H](C)[C@@H](O[C@@H]2O[C@H](C)C[C@H](N(C)C)[C@H]2O)[C@](C)(O)C[C@@H](C)[C@@H]2N[C@@H](COCCOC)O[C@H]([C@H]2C)[C@]1(C)O")
74
>>> testresult("CC(=O)SCC(Cc1ccccc1)C(=O)NCC(=O)OCc1ccccc1 (centres unmarked)")
76
>>> testresult("CC(=O)c1cc2c(o1)C(=O)c1ccccc1C2=O [Napabucasin, reference compound]")
10
>>> testresult("Cn1cc[nH]c1=S")
82
>>> testresult("CCOc1nc2cccc(C(=O)O)c2n1Cc1ccc(-c2ccccc2-c2nc(=O)o[nH]2)cc1")
101
>>> testresult("O=[N+]([O-])C(Br)(CO)CO")
86
